EXPERIMENTAL_TARGET: oxytocin receptor (Homo sapiens, UniProt P30559)
Construct: expressed in transfected cells; host or cells: CHO cell lines
Sequence (P30559 whole entry, species assumed): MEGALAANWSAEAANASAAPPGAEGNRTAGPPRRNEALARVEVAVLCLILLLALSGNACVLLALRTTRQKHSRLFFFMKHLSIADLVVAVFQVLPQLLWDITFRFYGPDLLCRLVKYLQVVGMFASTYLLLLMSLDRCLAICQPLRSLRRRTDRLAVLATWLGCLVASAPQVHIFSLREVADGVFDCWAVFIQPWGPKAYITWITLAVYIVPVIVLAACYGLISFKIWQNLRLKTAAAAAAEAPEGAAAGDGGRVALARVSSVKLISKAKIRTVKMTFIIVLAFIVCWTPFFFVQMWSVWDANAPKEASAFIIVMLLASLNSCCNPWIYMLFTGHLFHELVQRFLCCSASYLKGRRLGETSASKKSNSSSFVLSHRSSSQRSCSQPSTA
PROTOCOL_TEXT: IP-One IP1 accumulation assay in CHO cell lines expressing oxytocin receptor (agonist activation)
Type: cell-based
RUN_PARAMETERS: CHO; n=3; percentage of the endogenous agonist maximal stimulation; read-out: OT-R Emax
MEASUREMENT_LABEL: Emax (%)

• Cc1cc(C(=O)N2Cc3cnn(C)c3Nc3ccccc32)ccc1CNC(=O)N1C[C@@H](n2cc(CO)nn2)C[C@H]1C(=S)N(C)C = 100
• Cc1cc(C(=O)N2Cc3cnn(C)c3Nc3ccccc32)ccc1CNC(=O)N1C[C@H](n2cc(CN)nn2)C[C@H]1C(=S)N(C)C = 120
• Cc1cc(C(=O)N2Cc3cnn(C)c3Nc3ccccc32)ccc1CNC(=O)N1C[C@H](N=[N+]=[N-])C[C@H]1C(=S)N(C)C = 80
• Cc1cc(C(=O)N2Cc3cnn(C)c3Nc3ccccc32)ccc1CNC(=O)N1CCC[C@H]1C(=S)N(C)C [Reference, reference compound] = 96.7

====

EXPERIMENTAL_TARGET: oxytocin receptor (Homo sapiens)
Construct: expressed in transfected cells; host or cells: CHO cell lines
PROTOCOL_TEXT: IP-One IP1 accumulation assay in CHO cell lines expressing oxytocin receptor (agonist activation)
Assay type: cell-based
RUN_PARAMETERS: n=3; CHO cell lines expressing oxytocin receptor; IP1 accumulation; read-out: OT-R EC50
MEASUREMENT_LABEL: log10(EC50) (log10 of the value in nM)

- Cc1cc(C(=O)N2Cc3cnn(C)c3Nc3ccccc32)ccc1CNC(=O)N1C[C@@H](n2cc(CO)nn2)C[C@H]1C(=S)N(C)C [Compound 6]: -0.15
- CCCc1cn([C@@H]2C[C@@H](C(=S)N(C)C)N(C(=O)NCc3ccc(C(=O)N4Cc5cnn(C)c5Nc5ccccc54)cc3C)C2)nn1 [Compound 19]: 1.49
- Cc1cc(C(=O)N2Cc3cnn(C)c3Nc3ccccc32)ccc1CNC(=O)N1CCC[C@H]1C(=S)N(C)C [Reference, reference compound]: 1.65
- Cc1cc(C(=O)N2Cc3cnn(C)c3Nc3ccccc32)ccc1CNC(=O)N1C[C@H](N=[N+]=[N-])C[C@H]1C(=S)N(C)C [Compound 2]: 1.59
- Cc1cc(C(=O)N2Cc3cnn(C)c3Nc3ccccc32)ccc1CNC(=O)N1C[C@H](n2cc(CN)nn2)C[C@H]1C(=S)N(C)C [Compound 8]: 1.52
- Cc1cc(C(=O)N2Cc3cnn(C)c3Nc3ccccc32)ccc1CNC(=O)N1C[C@H](n2cc(COCCOCCO)nn2)C[C@H]1C(=S)N(C)C [Compound 14]: 1.00

====

EXPERIMENTAL_TARGET: V1A-R (Homo sapiens)
Sequence (P37288 whole entry, species assumed): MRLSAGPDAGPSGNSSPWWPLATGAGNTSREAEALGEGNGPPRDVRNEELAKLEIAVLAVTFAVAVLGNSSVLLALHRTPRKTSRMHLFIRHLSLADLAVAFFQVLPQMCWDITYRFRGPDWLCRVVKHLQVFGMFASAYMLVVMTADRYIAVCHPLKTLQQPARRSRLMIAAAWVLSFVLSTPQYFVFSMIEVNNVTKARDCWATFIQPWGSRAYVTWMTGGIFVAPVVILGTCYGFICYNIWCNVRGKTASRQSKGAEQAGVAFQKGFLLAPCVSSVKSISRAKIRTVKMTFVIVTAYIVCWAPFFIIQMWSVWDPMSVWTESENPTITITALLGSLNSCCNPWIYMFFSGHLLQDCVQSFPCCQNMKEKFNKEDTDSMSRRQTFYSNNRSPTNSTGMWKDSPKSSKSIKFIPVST
PROTOCOL_TEXT: V1A receptor antagonist assay measured as calcium signal
RUN_PARAMETERS: n=3; antagonist, calcium signal; read-out: V1A-R (Antago) IC50
Text: Comparison of efficacy as OT receptor agonist (measured as described in example 2), or as VIA receptor antagonist (measured as calcium signal, as follows), has been performed.
MEASUREMENT_LABEL: IC50

* Cc1cc(C(=O)N2Cc3cnn(C)c3Nc3ccccc32)ccc1CNC(=O)N1C[C@@H](n2cc(CO)nn2)C[C@H]1C(=S)N(C)C | 131 nM
* Cc1cc(C(=O)N2Cc3cnn(C)c3Nc3ccccc32)ccc1CNC(=O)N1CCC[C@H]1C(=S)N(C)C [Reference, reference compound] | 346 nM
